molecular target: 细胞膜表面表达的人CD47蛋白 (human, UniProt Q08722 19-323); assay: cell-based or functional assay
Sequence (Q08722 19-323): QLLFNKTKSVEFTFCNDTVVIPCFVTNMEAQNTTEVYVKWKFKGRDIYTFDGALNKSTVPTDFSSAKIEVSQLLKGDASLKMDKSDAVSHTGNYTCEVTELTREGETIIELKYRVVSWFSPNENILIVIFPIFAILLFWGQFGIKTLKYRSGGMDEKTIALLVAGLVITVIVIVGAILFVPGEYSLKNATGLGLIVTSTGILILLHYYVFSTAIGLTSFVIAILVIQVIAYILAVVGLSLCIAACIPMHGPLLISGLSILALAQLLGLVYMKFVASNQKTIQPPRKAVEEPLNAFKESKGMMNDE
QUANTITY_KIND: 促吞噬曲线的EC50值 (ATP法, C57BL小鼠腹腔原代巨噬细胞对Raji细胞的吞噬)

1) 抗人CD47单克隆抗体A5 (antibody, V domains shown) VH: EVQLQQSGPELVKPGASMRMSCKASGYSFTGYTMHWVKQSHGTNLEWIGLINPYTGGTNYNQKFKGKATLTLDKSSSTAYMELLSLTSEDFAVYYCARMGLAWFAYWGQGTLVTVSA VL: DVVMTQTPLSLPVSLGDQASISCRSSQSLVHSNGNTYFHWYLQKPGQSPKLLIYKVSNRFSGVPDRFSGSGSGTDFTLKISRVEAEDLGVYFCSQSTHVPYTFGGGTKLEMK : 0.00665 微克/毫升
